Tested on: LOX IMVI melanoma
method: NCI tumour cell line growth inhibition, 48 h
measurement_type: TGI (µM)

INSERT INTO results (molecule, experimental_target, unit, limit_operator, measured_value) VALUES
  ('COC(=O)C1CC2CC1C1C2SC(F)(F)C1(F)F (stereo not given)', 'LOX IMVI melanoma', 'µM', '>', 100),
  ('O=C(CC1(O)C(=O)Nc2c(Cl)cc(Cl)cc21)c1cccc([N+](=O)[O-])c1 (stereo not given)', 'LOX IMVI melanoma', 'µM', '=', 35.5),
  ('O=C1NC(=O)N(S(=O)(=O)c2cc(C(=O)Nc3ccc(Cl)cc3)c(Cl)cc2S)S(=O)(=O)N1', 'LOX IMVI melanoma', 'µM', '=', 34.3),
  ('O=c1c(Oc2ccc(F)cc2F)cc2cnc(NC3CCOCC3)nc2n1C1CC1', 'LOX IMVI melanoma', 'µM', '>', 25),
  ('Cc1nc2ccc(S(=O)(=O)O)cc2c(=O)n1-c1ccc(C(=O)NN2C(=O)C(Cl)C2c2cccs2)cc1 (stereo not given)', 'LOX IMVI melanoma', 'µM', '>', 100);

---

System: T-47D breast
method: NCI tumour cell line growth inhibition, 48 h
Some molecules, each annotated with its measured TGI.
measurement_type: TGI (µM)

INSERT INTO assay_data (molecule, limit_operator, measured_value) VALUES
  ('CS(=O)(=O)CCC1CCC(=O)O1 (stereo not given)', '>', 100),
  ('O=C(c1c(F)c(F)c(F)c(F)c1F)n1c(=S)n(C(=O)c2c(F)c(F)c(F)c(F)c2F)c2ccccc21', '>', 100),
  ('CCOC(=O)C#Cc1c(C(=O)OCC)nnn1[C@@H]1O[C@H](COC)[C@@H](OC)[C@H]1OC', '=', 7.39),
  ('COC(=O)/C=C1\C(CO[Si](C)(C)C(C)(C)C)OC(n2ccc(=O)[nH]c2=O)C1O (stereo not given)', '>', 22.3),
  ('O=C1c2ccccc2-c2c1c1c(O)cccc1n2Cc1ccccc1', '=', 90.2),
  ('Cc1ccc2c(=O)cc(-c3cc(C)sc3C)[nH]c2n1', '>', 100),
  ('N#CCC(=O)N/N=C\C(O)C(O)C(O)C(O)CO (stereo not given)', '>', 100),
  ('CCN(CC)/[N+]([O-])=N/OS(=O)(=O)N(C)C', '>', 100),
  ('O=[N+]([O-])c1ccc2c3c1[C@@H]1O[C@@H]1c1cccc(c1-3)[C@@H]1O[C@H]21', '=', 12),
  ('Nc1nccc(NCC2(CO)CC(CCc3ccccc3)C2)n1 (stereo not given)', '=', 27.6);

---

System: A498 renal
method: NCI tumour cell line growth inhibition, 48 h; in the data active = GI50 below about 0.43 µM; inactive = the rest
Outcome codes: active, inactive

INSERT INTO assay_data (compound, cat) VALUES
  ('O=S(=O)(Nc1ccccc1)c1ccc(C2CC3(Cl)C(Cl)=C(Cl)C2(Cl)C3(Cl)Cl)cc1 (configuration not stated)', 'inactive'),
  ('CCN1CCN(CC(=O)Nc2nc3ccc(NCc4ccc(Br)cc4)cc3s2)CC1', 'inactive'),
  ('COc1cc2c(cc1OCCN1CCN(CCN3C(=O)c4cccc5cccc(c45)C3=O)CC1)N=C[C@@H]1CCCN1C2=O', 'inactive'),
  ('O=C1NC(=O)C2C3C=CC(C12)C1C2C(=O)NC(=O)C2C31 (configuration not stated)', 'inactive'),
  ('O=C(O)c1cn(C2CC2)c2cc(N3CCN(C(=O)N(c4ccccc4)c4nc(-c5ccccc5)cs4)CC3)c(F)cc2c1=O', 'active'),
  ('C#CCCCCCC(=O)N[C@H]1C=C[C@@H]2/C=C(C)/C=C/[C@@H](C)[C@H]([C@H](C)[C@H](O)[C@@H](C)NC(C)=O)OC(=O)/C=C/C=C(C)\C=C\[C@]2(C)C1', 'active'),
  ('O=C(NO)c1ccc(CNc2cccc3nc(C4CC4)n(-c4ccccc4)c(=O)c23)cc1', 'inactive'),
  ('CNCc1cccc2c1OCCOCCOCCNS(=O)(=O)c1ccc(cc1)-c1cnc(N)c(n1)C(=O)N2', 'inactive'),
  ('COc1ccc(Cn2c(Br)c3c(c2-c2cc(OC)c(OC)c(OC)c2)CCc2sc(N)nc2-3)cc1', 'active'),
  ('Nc1cc(C(F)(F)F)c(-c2nc(N3CCOCC3)nc(N3CCOCC3)n2)cn1', 'active'),
  ('COc1cc2c3c(n(CCCN)c(=O)c2cc1OC)-c1ccc(N)cc1C3=O', 'inactive'),
  ('CN(C)[C@@H]1C(=O)C(C(=O)NCc2nc3[nH]cnc(=S)c3[nH]2)=C(O)[C@@]2(O)C(=O)C3=C(O)c4c(O)cccc4[C@@](C)(O)[C@H]3C[C@@H]12', 'inactive');

---

System: PC-3 prostate
method: NCI tumour cell line growth inhibition, 48 h; in the data active = GI50 below about 0.43 µM; inactive = the rest
Outcome codes: 1 = active, 0 = inactive

INSERT INTO results (compound, cat) VALUES
  ('O=C1NC(=O)N(S(=O)(=O)c2cc(C(=O)Nc3ccc(Cl)cc3)c(Cl)cc2S)S(=O)(=O)N1', 0),
  ('O=S(=O)(Nc1ccccc1)c1ccc(C2CC3(Cl)C(Cl)=C(Cl)C2(Cl)C3(Cl)Cl)cc1 (centres undefined)', 0),
  ('COc1cc2c(Oc3ccc(-c4cnc(Nc5ccc(F)cc5)n(C)c4=O)cc3F)ccnc2cc1OCCCN1CCOCC1', 0),
  ('COc1ccc(-c2c(Nc3ccccn3)nc3c(C4=CCCCC4)c(-c4ccccc4)[nH]n3c2=O)cc1', 0),
  ('N#C[Se]CCN1C(=O)c2ccccc2C1=O', 0),
  ('CN(C)[C@@H]1C(=O)C(C(=O)NCc2nc3[nH]cnc(=S)c3[nH]2)=C(O)[C@@]2(O)C(=O)C3=C(O)c4c(O)cccc4[C@@](C)(O)[C@H]3C[C@@H]12', 0),
  ('COc1cc(NC(=O)COc2ccccc2)c(C(N)=O)cc1OC', 0),
  ('Nc1cc(C(F)(F)F)c(-c2nc(N3CCOCC3)nc(N3CCOCC3)n2)cn1', 1),
  ('COc1cc(/C=C/C(=O)c2nc3cc(F)ccc3nc2C)cc(OC)c1OC', 0);

---

Some compounds, each annotated with its measured GI50.
System: UACC-62 melanoma
method: NCI tumour cell line growth inhibition, 48 h
measurement_type: GI50

INSERT INTO assay_data (smiles, experimental_target, measured_value) VALUES
  ('O=C(CCN1CCOCC1)Nc1ccc(Cn2nnc3c2C(=O)c2nnn(Cc4ccc(NC(=O)CCN5CCOCC5)cc4)c2C3=O)cc1', 'UACC-62 melanoma', '1.53 µM'),
  ('N#C[Se]CCN1C(=O)c2ccccc2C1=O', 'UACC-62 melanoma', '1.52 µM'),
  ('FC(F)(F)c1cccc(CNC2CCN(CCc3ccccc3)CC2)c1', 'UACC-62 melanoma', '13.9 µM'),
  ('COc1cc2c3c(n(CCCN)c(=O)c2cc1OC)-c1ccc(N)cc1C3=O', 'UACC-62 melanoma', '1.08 µM'),
  ('COc1ccc(-c2c(Nc3ccccn3)nc3c(C4=CCCCC4)c(-c4ccccc4)[nH]n3c2=O)cc1', 'UACC-62 melanoma', '2.2 µM');

---

Some compounds, each annotated with its measured TGI.
Tested on: HCT-15 colon
method: NCI tumour cell line growth inhibition, 48 h
measurement_type: TGI

INSERT INTO assay_data (compound, measurement_type, measured_value) VALUES
  ('O=[N+]([O-])c1ccc(/C=C(/c2ccc([N+](=O)[O-])o2)S(=O)(=O)c2ccccc2)cc1', 'TGI', '88.7 µM'),
  ('CC1=N/C(=C\c2ccc(C)cc2)C(=O)O1', 'TGI', '> 100 µM'),
  ('CN(C)[C@@H]1C(=O)C(C(=O)NCc2nc3[nH]cnc(=S)c3[nH]2)=C(O)[C@@]2(O)C(=O)C3=C(O)c4c(O)cccc4[C@@](C)(O)[C@H]3C[C@@H]12', 'TGI', '> 100 µM'),
  ('CC[C@]12C=CCN3CC[C@@]4(c5ccc(OC)cc5N(C)[C@H]4[C@@](O)(C(=O)OC)[C@@H]1OC(=O)CCCN1CCN(CCCC(=O)O[C@@H]4[C@]5(CC)C=CCN6CC[C@@]7(c8ccc(OC)cc8N(C)[C@H]7[C@@]4(O)C(=O)OC)[C@@H]65)CC1)[C@@H]32', 'TGI', '2.61 µM'),
  ('COc1cc2c(cc1OCCCOc1cc3c(cc1OC)C(=O)N1CCC[C@H]1C(=O)N3)N=C[C@@H]1CCCN1C2=O', 'TGI', '> 100 µM'),
  ('CC(=O)Nc1nc2c(=O)c3ccccc3sc2s1', 'TGI', '> 100 µM'),
  ('CCOC(=O)c1nc2ccc(C(F)(F)F)cc2nc1Oc1ccc(OC)cc1', 'TGI', '> 100 µM'),
  ('O=C1c2ccccc2N1C(=O)c1ccccc1[N+](=O)[O-]', 'TGI', '> 100 µM'),
  ('NS(=O)(=O)c1cc2c(cc1Cl)NCNS2(=O)=O', 'TGI', '> 100 µM'),
  ('CCC12C=C(C(=O)OC)N3c4ccccc4C4CCN(CCC1)C2C43 (stereo not drawn)', 'TGI', '> 100 µM'),
  ('COC(=O)N/N=C(\C)c1sc(-c2nc(C)c(/C(C)=N/NC(=O)OC)s2)nc1C', 'TGI', '> 100 µM'),
  ('COC(=O)C1(CCCCl)CCCN1C(=O)OC(C)(C)C (stereo not drawn)', 'TGI', '> 100 µM'),
  ('O=C(CC1(O)C(=O)Nc2c(Cl)cc(Cl)cc21)c1cccc([N+](=O)[O-])c1 (stereo not drawn)', 'TGI', '> 100 µM'),
  ('CC(C)(C)n1c(=O)n2c(-c3ccccc3)c(-c3ccccc3)n2c1=O', 'TGI', '> 100 µM'),
  ('COc1ccc(OC/C(N)=N/NC(=O)c2ccncc2)cc1', 'TGI', '> 100 µM'),
  ('OCc1ccc(N2CCc3ccc(F)cc3C2)cc1Cl', 'TGI', '18.8 µM'),
  ('O=S(=O)(Nc1ccccc1)c1ccc(C2CC3(Cl)C(Cl)=C(Cl)C2(Cl)C3(Cl)Cl)cc1 (stereo not drawn)', 'TGI', '10.2 µM'),
  ('CC(C)C(=O)Cc1ccc2ccccc2n1', 'TGI', '> 100 µM'),
  ('O=C1NC(=NCc2cccs2)O/C1=C\c1ccc2ncccc2c1', 'TGI', '> 25 µM'),
  ('C/C=C1/C=CC2c3[nH]c4ccccc4c3CCN2C1 (stereo not drawn)', 'TGI', '> 400 µM'),
  ('COc1cc(NC(=O)COc2ccccc2)c(C(N)=O)cc1OC', 'TGI', '> 100 µM'),
  ('c1ccc(C(NC2=NCCO2)C2CC2)cc1 (stereo not drawn)', 'TGI', '> 100 µM'),
  ('CC1C(OS(=O)(=O)c2ccc3[nH]c(=S)sc3c2)CC2C3(C)CCC2(C(C)C(=O)O)C(O)C13 (stereo not drawn)', 'TGI', '27.1 µM'),
  ('Cc1cc(C=O)c2c(=O)c3c(O)ccc(/C=C/C(C)C)c3oc2c1', 'TGI', '99.6 µM'),
  ('O=C1c2ccccc2C2(O)N(c3ccccc3)C(=S)N(c3ccccc3)C12O (stereo not drawn)', 'TGI', '> 100 µM'),
  ('CN(C)CCNC(=O)c1cccc2c1nc(-c1cccnc1)c1ccccc12', 'TGI', '20.1 µM'),
  ('Cc1ccccc1NC(=O)CC(=O)NNCC(=O)Nc1nnc(-c2ccccc2)s1', 'TGI', '> 100 µM'),
  ('CCCCCCCCCCCCCCCCOP(=O)([O-])OCC[N+](C)(C)C1CC(C)(C)N(O)C(C)(C)C1', 'TGI', '> 100 µM'),
  ('O=C(O)CSc1cc(NS(=O)(=O)c2ccc(Br)cc2)c2ccccc2c1O', 'TGI', '30.7 µM'),
  ('COC(=O)c1ccc(CCC2=CC(=O)C=CC2=O)cc1', 'TGI', '23 µM'),
  ('C(=NC12CC3CC(CC(C3)C1)C2)C1CCCCC1', 'TGI', '> 100 µM'),
  ('COC(=O)/C=C1\C(CO[Si](C)(C)C(C)(C)C)OC(n2ccc(=O)[nH]c2=O)C1O (stereo not drawn)', 'TGI', '35.2 µM'),
  ('CO/C(N)=C(\C#N)N=Cc1ccsc1', 'TGI', '> 100 µM');
